assay: In vitro toxicity in Calu-3 cells (MTS-PMS kit); format: cell-based; settings: human, Calu-3 human lung bronchial cells, read-out: IC50 (cytotoxicity)
experimental-endpoint: IC50 at 72 h

In: Sample `C[C@H](Cn1cnc2c(N)ncnc21)OCP(=O)(O)Oc1ccccc1` — what was its IC50 at 72 h?
Out: > 100 µM

In: Sample C[C@H](Cn1cnc2c(N)ncnc21)OC[P@@](=O)(OCOC(=O)C(C)(C)C)Oc1ccccc1 [fumarate] — what was its IC50 at 72 h?
Out: > 100 µM

###

Experiment: Cell cytotoxicity determination (MTT) in Vero CCL-81 cells
Assay type: cell-based
Details: monkey
Procedure: Cell Cytotoxicity determination: 100 μL Vero CCL-81 cells were seeded on to 96 well plate at a density of 3×10^6 cells/mL. The plates were incubated for 24 hrs at 37° C. with 5% CO2. After overnight incubation the spent medium was discarded and 100 μL of different concentrations of each drugs prepared earlier from the stock was added to the respective wells in quadruplets. The plates were incubated for 72 hr at 37° C. in 5% CO2. […] The OD was measured at 570 nm using ELISA plate reader. […]
Provide the recorded CC50 at 72 h for the entries that follow.

In: Sample C[C@H](Cn1cnc2c(N)ncnc21)OC[P@@](=O)(OCOC(=O)C(C)(C)C)Oc1ccccc1 [fumarate] — what was its CC50 at 72 h?
Out: > 100 µM

In: Sample `C[C@H](Cn1cnc2c(N)ncnc21)OCP(=O)(O)Oc1ccccc1` — what was its CC50 at 72 h?
Out: > 100 µM
